Reference for the values: patent US9296734B2

molecular target: UniProtKB P07339; assay: In vitro enzymatic Cathepsin D (Cat D) FRET assay; format: biochemical; details: average IC50, cathepsin D enzyme assay; read-out: CatD IC50
Sequence (P07339 65-412, species assumed): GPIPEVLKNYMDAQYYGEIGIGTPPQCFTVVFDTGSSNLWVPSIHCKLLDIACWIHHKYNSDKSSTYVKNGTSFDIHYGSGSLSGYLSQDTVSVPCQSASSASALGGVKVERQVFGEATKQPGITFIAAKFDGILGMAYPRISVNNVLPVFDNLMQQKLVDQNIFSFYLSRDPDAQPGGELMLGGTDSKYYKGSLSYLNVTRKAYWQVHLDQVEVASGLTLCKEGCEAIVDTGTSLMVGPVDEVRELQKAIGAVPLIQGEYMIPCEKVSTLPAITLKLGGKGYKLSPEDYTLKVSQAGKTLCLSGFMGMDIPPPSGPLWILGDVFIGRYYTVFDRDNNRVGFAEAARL
Give measured IC50 for each item. Keep answers brief.
Give bare numbers, in µM.

NC1=N[C@](CF)(c2cc(C(=O)NC3CC3)ccc2F)C[C@@H](C(F)(F)F)O1 [Example 182] | 3490

Read the next record carefully.
Problem: # query: IC50 of entry Cc1cc(Cl)cnc1C(=O)Nc1cc(F)c(F)c([C@]2(C)C[C@@H](C(F)(F)F)OC(N)=N2)c1 [Example 170]
Solution: 733

###

system: Aβ40 in conditioned medium of cells stably expressing Amyloid Precursor Protein (APP); experiment: In vitro BACE cell-based assay (Aβ40 sandwich ELISA); conditions: Homo sapiens, HEK293, HEK cells; average; read-out: HEK cell assay IC50
measurement-type: pIC50
One number for each entry, as −log10 of the molar value.

Recorded results for 5 compounds are shown here.
Cc1cc(Nc2ncnc3cc(Cl)cnc23)cc([C@]2(CF)C[C@@H](C(F)(F)F)OC(N)=N2)c1F [Example 230] | 7.24
CNC(=O)c1ccc(C#Cc2ccc(F)c([C@]3(CF)C[C@@H](C(F)(F)F)OC(N)=N3)c2)nc1 [Example 126] | 5.13
COc1cc(Cl)cnc1C(=O)Nc1cc(F)c(F)c([C@]2(C)C[C@@H](C(F)(F)F)OC(N)=N2)c1 [Example 195] | 7.96
NC1=N[C@](CF)(c2cc(Oc3cc(-c4ccccc4)cc(Cl)n3)ccc2F)C[C@@H](C(F)(F)F)O1 [Example 235] | 5.09
Cc1cc(C#N)cnc1C(=O)Nc1cc(C)c(F)c([C@]2(CF)C[C@@H](C(F)(F)F)OC(N)=N2)c1 [Example 219] | 7.96

// input: 2 compounds below; output: pIC50 for each
1. Cc1cc(C#N)cnc1C(=O)Nc1cc(F)c(F)c([C@]2(CF)C[C@@H](C(F)(F)F)OC(N)=N2)c1 [Example 232]
2. NC1=N[C@](CF)(c2cc(C#Cc3ccc4cc[nH]c4c3)ccc2F)C[C@@H](C(F)(F)F)O1 [Example 132]

Solution:
1: 7.26; 2: 5.51
